Cited source for all entries: ChEMBL document CHEMBL1142177

assay: Half life in 18-45 yr old woman plasma at 400 mg, po twice daily after 8 days; type: ADME, organism-based; conditions: female, human
MEASURED_PARAMETER: half-life (h)

> print(dat)
                                   molecule  measured.parameter  readout.number
1  CC[C@@H]([C@H](C)O)n1ncn(-c2ccc(N3CCN(c4ccc(OC[C@@H]5CO[C@@](Cn6cncn6)(c6ccc(F)cc6F)C5)cc4)CC3)cc2)c1=O [POSACONAZOLE]           half-life            31.9

* * *

assay: Cmax in 18-45 yr old man plasma at 400 mg, po twice daily after 8 days; assay type: ADME, organism-based; parameters: dose 400 mg, route oral; details: male, human
MEASURED_PARAMETER: Cmax (µg/mL)

> print(dat)
                                     smiles  measured.parameter  result.units  readout.number
1  CC[C@@H]([C@H](C)O)n1ncn(-c2ccc(N3CCN(c4ccc(OC[C@@H]5CO[C@@](Cn6cncn6)(c6ccc(F)cc6F)C5)cc4)CC3)cc2)c1=O                Cmax         µg/mL            2.68

* * *

assay: Cmax in white racial/ethnic human plasma at 400 mg, po twice daily after 8 days; format: ADME, organism-based; design: dose 400 mg, route oral
MEASURED_PARAMETER: Cmax (ng/mL)

> print(dat)
                                   molecule  measured.parameter  result.units  readout.number
1  CC[C@@H]([C@H](C)O)n1ncn(-c2ccc(N3CCN(c4ccc(OC[C@@H]5CO[C@@](Cn6cncn6)(c6ccc(F)cc6F)C5)cc4)CC3)cc2)c1=O [POSACONAZOLE]                Cmax         ng/mL            2860

* * *

assay: Cmax in 18-45 yr old human plasma at 400 mg, po twice daily after 8 days; format: ADME, organism-based; design: dose 400 mg, route oral
MEASURED_PARAMETER: Cmax (ng/mL)

> print(dat)
                                     smiles  readout.number
1  CC[C@@H]([C@H](C)O)n1ncn(-c2ccc(N3CCN(c4ccc(OC[C@@H]5CO[C@@](Cn6cncn6)(c6ccc(F)cc6F)C5)cc4)CC3)cc2)c1=O            2610

* * *

experiment: Tmax in 18-45 yr old man plasma at 400 mg, po twice daily after 8 days; type: ADME, organism-based; details: male, human
MEASURED_PARAMETER: Tmax (h)

> print(dat)
                                   compound  readout.number
1  CC[C@@H]([C@H](C)O)n1ncn(-c2ccc(N3CCN(c4ccc(OC[C@@H]5CO[C@@](Cn6cncn6)(c6ccc(F)cc6F)C5)cc4)CC3)cc2)c1=O [POSACONAZOLE]               4

* * *

experiment: Tmax in >=65 yr old human plasma at 400 mg, po twice daily after 8 days; format: ADME, organism-based
MEASURED_PARAMETER: Tmax (h)

> print(dat)
                                   compound  result.units  readout.number
1  CC[C@@H]([C@H](C)O)n1ncn(-c2ccc(N3CCN(c4ccc(OC[C@@H]5CO[C@@](Cn6cncn6)(c6ccc(F)cc6F)C5)cc4)CC3)cc2)c1=O [POSACONAZOLE]             h               5

* * *

experiment: Cmax in 18-45 yr old woman plasma at 400 mg, po twice daily after 8 days; format: ADME, organism-based; design: dose 400 mg, route oral; conditions: female, human
MEASURED_PARAMETER: Cmax (ng/mL)

> print(dat)
                                     smiles  result.units  readout.number
1  CC[C@@H]([C@H](C)O)n1ncn(-c2ccc(N3CCN(c4ccc(OC[C@@H]5CO[C@@](Cn6cncn6)(c6ccc(F)cc6F)C5)cc4)CC3)cc2)c1=O         ng/mL            2520

* * *

test: AUC (0-12 hrs) in >=65 yr old human plasma at 400 mg, po twice daily after 8 days; format: ADME, organism-based
MEASURED_PARAMETER: half-life (h)

> print(dat)
                                     smiles  readout.number
1  CC[C@@H]([C@H](C)O)n1ncn(-c2ccc(N3CCN(c4ccc(OC[C@@H]5CO[C@@](Cn6cncn6)(c6ccc(F)cc6F)C5)cc4)CC3)cc2)c1=O            41.8

* * *

experiment: Tmax in white racial/ethnic human plasma at 400 mg, po twice daily after 8 days; type: ADME, organism-based
MEASURED_PARAMETER: Tmax (h)

> print(dat)
                                     smiles  readout.number
1  CC[C@@H]([C@H](C)O)n1ncn(-c2ccc(N3CCN(c4ccc(OC[C@@H]5CO[C@@](Cn6cncn6)(c6ccc(F)cc6F)C5)cc4)CC3)cc2)c1=O               5

* * *

assay: Half life in black racial/ethnic human plasma at 400 mg, po twice daily after 8 days; assay type: ADME, organism-based
MEASURED_PARAMETER: half-life (min)

> print(dat)
                                     smiles  result.units  readout.number
1  CC[C@@H]([C@H](C)O)n1ncn(-c2ccc(N3CCN(c4ccc(OC[C@@H]5CO[C@@](Cn6cncn6)(c6ccc(F)cc6F)C5)cc4)CC3)cc2)c1=O           min            1930

* * *

assay: Tmax in >=65 yr old man plasma at 400 mg, po twice daily after 8 days; format: ADME, organism-based; settings: male, human
MEASURED_PARAMETER: Tmax (h)

> print(dat)
                                     smiles  readout.number
1  CC[C@@H]([C@H](C)O)n1ncn(-c2ccc(N3CCN(c4ccc(OC[C@@H]5CO[C@@](Cn6cncn6)(c6ccc(F)cc6F)C5)cc4)CC3)cc2)c1=O               5

* * *

test: Half life in >=65 yr old man plasma at 400 mg, po twice daily after 8 days; type: ADME, organism-based; settings: male, human
MEASURED_PARAMETER: half-life (h)

> print(dat)
                                     smiles  measured.parameter  readout.number
1  CC[C@@H]([C@H](C)O)n1ncn(-c2ccc(N3CCN(c4ccc(OC[C@@H]5CO[C@@](Cn6cncn6)(c6ccc(F)cc6F)C5)cc4)CC3)cc2)c1=O           half-life            37.7

* * *

assay: Cmax in >=65 yr old man plasma at 400 mg, po twice daily after 8 days; format: ADME, organism-based; parameters: dose 400 mg, route oral; details: male, human
MEASURED_PARAMETER: Cmax

> print(dat)
                                     smiles  measured.parameter      result
1  CC[C@@H]([C@H](C)O)n1ncn(-c2ccc(N3CCN(c4ccc(OC[C@@H]5CO[C@@](Cn6cncn6)(c6ccc(F)cc6F)C5)cc4)CC3)cc2)c1=O                Cmax  3250 ng/mL

* * *

assay: Tmax in 18-45 yr old woman plasma at 400 mg, po twice daily after 8 days; type: ADME, organism-based; conditions: female, human
MEASURED_PARAMETER: Tmax (h)

> print(dat)
                                     smiles  readout.number
1  CC[C@@H]([C@H](C)O)n1ncn(-c2ccc(N3CCN(c4ccc(OC[C@@H]5CO[C@@](Cn6cncn6)(c6ccc(F)cc6F)C5)cc4)CC3)cc2)c1=O               5

* * *

assay: Cmax in >=65 yr old woman plasma at 400 mg, po twice daily after 8 days; format: ADME, organism-based; set-up: dose 400 mg, route oral; conditions: female, human
MEASURED_PARAMETER: Cmax (ng/mL)

> print(dat)
                                     smiles  readout.number
1  CC[C@@H]([C@H](C)O)n1ncn(-c2ccc(N3CCN(c4ccc(OC[C@@H]5CO[C@@](Cn6cncn6)(c6ccc(F)cc6F)C5)cc4)CC3)cc2)c1=O            3500

* * *

experiment: Cmax in >=65 yr old human plasma at 400 mg, po twice daily after 8 days; assay type: ADME, organism-based; set-up: dose 400 mg, route oral
MEASURED_PARAMETER: Cmax

> print(dat)
                                     smiles  measured.parameter      result
1  CC[C@@H]([C@H](C)O)n1ncn(-c2ccc(N3CCN(c4ccc(OC[C@@H]5CO[C@@](Cn6cncn6)(c6ccc(F)cc6F)C5)cc4)CC3)cc2)c1=O                Cmax  3370 ng/mL
